Recorded values, source PubChem BioAssay.

Test: modulators of MEP2-GFP levels in yeast, confirmation, S. cerevisiae, flow cytometry GFP, cherry picks (AID 2272);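 also: ratio of well signal to plate DMSO mean so 100% equals DMSO level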
Conditions: S. cerevisiae MEP2-GFP strain, 3 h, at 10 µM, stronger effect = higher value

{"columns": ["MOLECULE", "GFP response vs DMSO (%)"],
 "data": [
  ["CCC(=O)Nc1cccc(C(=O)/C=C/c2ccccc2)c1", 109],
  ["S=c1[nH]nc(-c2ccco2)n1/N=C/C(Cl)=C/c1ccccc1", 112],
  ["CCOC(=O)C1=C(Cc2ccc(F)cc2)C(=O)c2ccccc2C1=O", 106],
  ["NC(=O)CSCc1c(Cl)cccc1Cl", 109],
  ["CCS(=O)(=O)N1N=C(c2ccc(NS(C)(=O)=O)cc2)CC1c1ccccc1 (stereo unspecified)", 108],
  ["Cc1ccn2c(NC3CCCCC3)c(-c3cccc(-c4cccc(Cl)c4)c3)nc2c1", 108],
  ["CCCc1[nH]nc2c1C(c1ccc(O)cc1OCC)C(C#N)=C(N)O2 (stereo unspecified)", 106],
  ["CCOc1ccc(-c2nc(-c3ccc(OC)cc3)no2)cc1OCC", 102],
  ["O=C(CCc1ccccc1)NNC(=S)NC(=O)c1ccccc1", 116],
  ["CC1=NNC(=O)/C1=C\\c1cn(-c2ccccc2)nc1-c1ccc(Cl)cc1", 101],
  ["Cc1noc(/C=C/c2cccnc2)c1[N+](=O)[O-]", 104]
]}
